Source: ChEMBL document CHEMBL5137044

# Assay notes: Clearance in Sprague-Dawley rat at 1 mg/kg,iv measured upto 24 hrs by LC-MS/MS analysis
# Assay type: ADME, organism-based
# Conditions: in vivo
Attribute measured: clearance (mL/min/kg)
The figure you give is taken to be in mL/min/kg; do not add the unit.

Q: Reported clearance for Cc1c(C(C#N)c2c(F)cccc2F)nc(SC(C)C)[nH]c1=O (stereo unspecified) : what is it?
Result: 2.13

----------
# Assay notes: Cytotoxicity against human MT4 cells assessed as cell growth inhibition incubated for 5 days by MTT assay
# Format: toxicity, cell-based
# Conditions: time 5 day
Recorded log10(CC50 at 120 h) by entry
Annotation: log10 of CC50 at 120 h, µM basis.

Observe how each entry below is paired with its result.
>>> quantitative_readout("Cc1ccc(C(C#N)c2nc(SC(C)C)[nH]c(=O)c2C)cc1 (configuration not stated)")
1.11
>>> quantitative_readout("Cc1ccccc1C(C#N)c1nc(SC(C)C)[nH]c(=O)c1C (configuration not stated)")
2.05
>>> quantitative_readout("Cc1c(C(C#N)c2cccc(Br)c2)nc(SC(C)C)[nH]c1=O (configuration not stated)")
2.10

Q: Reported log10(CC50 at 120 h) for Cc1c(C(C#N)c2ccc(Br)cc2)nc(SC(C)C)[nH]c1=O (configuration not stated) : what is it?
Result: 1.67

Q: Follow-up item: Cc1c(C(C#N)c2ccccn2)nc(SC(C)C)[nH]c1=O (configuration not stated)
Result: 2.48

Q: Follow-up item: Cc1c(C(C#N)c2cccnc2)nc(SC(C)C)[nH]c1=O (configuration not stated)
Result: 2.56

----------
# Study system: Cytochrome P450 1A2 (Homo sapiens, UniProt P05177)
# Sequence (P05177 whole entry): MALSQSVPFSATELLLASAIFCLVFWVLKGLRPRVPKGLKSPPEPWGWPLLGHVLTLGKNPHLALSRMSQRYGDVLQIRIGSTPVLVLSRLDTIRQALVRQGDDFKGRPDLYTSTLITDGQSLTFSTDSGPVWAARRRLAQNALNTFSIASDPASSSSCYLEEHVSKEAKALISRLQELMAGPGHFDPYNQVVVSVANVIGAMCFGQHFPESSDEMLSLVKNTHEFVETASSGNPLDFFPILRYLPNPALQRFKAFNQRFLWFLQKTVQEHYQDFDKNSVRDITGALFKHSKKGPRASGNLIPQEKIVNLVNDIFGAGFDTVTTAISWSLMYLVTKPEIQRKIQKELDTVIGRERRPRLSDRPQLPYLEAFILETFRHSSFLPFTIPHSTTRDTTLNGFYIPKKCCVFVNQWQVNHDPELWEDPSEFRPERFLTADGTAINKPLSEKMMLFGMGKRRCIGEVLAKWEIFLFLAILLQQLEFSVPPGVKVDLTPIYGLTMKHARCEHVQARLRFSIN
# Assay notes: Inhibition of CYP1A2 in human liver microsomes using phenacetin as substrate incubated for 15 to 40 mins in presence of NADPH
# Assay type: ADME, Microsome
pIC50: −log10 of the molar value.
Attribute measured: pIC50

Q: Short answer please: pIC50, Cytochrome P450 1A2 (Homo sapiens, UniProt P05177), entry Cc1c(C(C#N)c2c(F)cccc2F)nc(SC(C)C)[nH]c1=O (stereo unspecified)
Result: < 4.30

----------
# Assay notes: Fold resistance, ratio of EC50 for antiviral activity against drug-resistant HIV-1 E138K mutant infected in human MT4 cells to EC50 for antiviral activity against […] HIV-1 infected in human MT4 cells
# Type: functional
API: label(entry) gives yes if the entry's Ratio EC50 is strictly smaller than 3; on equality or larger values it gives no.

>>> class_label("Cc1c(C(C#N)c2c(F)cccc2Cl)nc(SC(C)C)[nH]c1=O (configuration not stated)")
"no"
>>> class_label("Cc1c(C(C#N)c2ccc(F)c(C#N)c2)nc(SC(C)C)[nH]c1=O (configuration not stated)")
"yes"

Q: Could you please tell me whether Ratio EC50 recorded for Cc1cccc(C)c1C(C#N)c1nc(SC(C)C)[nH]c(=O)c1C (configuration not stated) is less than 3?
Result: no

Q: Follow-up item: Cc1ccc(C(C#N)c2nc(SC(C)C)[nH]c(=O)c2C)cc1 (configuration not stated)
Result: yes

Q: Follow-up item: Cc1cn([C@H]2C[C@H](N=[N+]=[N-])[C@@H](CO)O2)c(=O)[nH]c1=O
Result: yes

----------
# Assay notes: Apparent volume of distribution in Sprague-Dawley rat at 1 mg/kg,iv measured upto 24 hrs by LC-MS/MS analysis
# Assay type: ADME, organism-based
# Conditions: in vivo, read-out: Vz
Attribute measured: Vd (L/kg)
The figure you give is taken to be in L/kg; do not add the unit.

Q: Reported Vd for Cc1c(C(C#N)c2c(F)cccc2F)nc(SC(C)C)[nH]c1=O (stereo unspecified) : what is it?
Result: 0.764

----------
# Study system: Human immunodeficiency virus type 1 reverse transcriptase (Human immunodeficiency virus 1)
# Assay notes: Inhibition of recombinant wild-type p66/p51 HIV-1 reverse transcriptase incubated for 40 mins by picogreen dye-based spectrofluorometric analysis
API: label(entry) gives Y if the entry's IC50 is strictly smaller than 2000 nM; on equality or larger values it gives N.

>>> class_label("Cc1c(C(C#N)c2ccc(F)cc2)nc(SC(C)C)[nH]c1=O (stereo unspecified)")
"N"
>>> class_label("COc1ccc(C(C#N)c2nc(SC(C)C)[nH]c(=O)c2C)cc1 (stereo unspecified)")
"N"
>>> class_label("Cc1c(C(C#N)c2c(F)cccc2F)nc(SC(C)C)[nH]c1=O (stereo unspecified)")
"Y"
>>> class_label("Cc1cccc(C)c1C(C#N)c1nc(SC(C)C)[nH]c(=O)c1C (stereo unspecified)")
"N"
>>> class_label("Cc1c(C(C#N)c2c(Cl)cccc2Cl)nc(SC(C)C)[nH]c1=O (stereo unspecified)")
"Y"

Consider the additional molecule presented here.
Q: Could you please tell me whether IC50 recorded for Cc1c(C(C#N)c2ccccc2C(F)(F)F)nc(SC(C)C)[nH]c1=O (stereo unspecified) is less than 2000 nM?
Result: N

----------
# Study system: Cytochrome P450 3A4 (Homo sapiens, UniProt P08684)
# Sequence (P08684 whole entry): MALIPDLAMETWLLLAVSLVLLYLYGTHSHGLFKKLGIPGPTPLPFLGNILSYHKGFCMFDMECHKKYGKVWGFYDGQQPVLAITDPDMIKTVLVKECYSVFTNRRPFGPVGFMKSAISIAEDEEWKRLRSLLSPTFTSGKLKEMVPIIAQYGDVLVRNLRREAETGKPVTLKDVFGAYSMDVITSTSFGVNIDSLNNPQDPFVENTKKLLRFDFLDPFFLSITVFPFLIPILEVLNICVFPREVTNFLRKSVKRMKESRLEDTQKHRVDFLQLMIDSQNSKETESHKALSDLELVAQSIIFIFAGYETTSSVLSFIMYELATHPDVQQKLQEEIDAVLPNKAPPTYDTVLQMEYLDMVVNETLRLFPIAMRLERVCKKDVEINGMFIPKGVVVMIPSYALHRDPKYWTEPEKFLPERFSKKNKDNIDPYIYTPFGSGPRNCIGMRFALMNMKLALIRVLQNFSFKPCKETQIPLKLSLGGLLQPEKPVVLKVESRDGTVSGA
# Assay notes: Inhibition of CYP3A4M in human liver microsomes using midazolam as substrate incubated for 15 to 40 mins in presence of NADPH
# Assay type: ADME, Microsome
pIC50: −log10 of the molar value.
Attribute measured: pIC50

Q: Reported pIC50 for Cc1c(C(C#N)c2c(F)cccc2F)nc(SC(C)C)[nH]c1=O (stereo unspecified) : what is it?
Result: < 4.30

----------
# Study system: hERG (Homo sapiens, UniProt Q12809)
# Sequence (Q12809 whole entry): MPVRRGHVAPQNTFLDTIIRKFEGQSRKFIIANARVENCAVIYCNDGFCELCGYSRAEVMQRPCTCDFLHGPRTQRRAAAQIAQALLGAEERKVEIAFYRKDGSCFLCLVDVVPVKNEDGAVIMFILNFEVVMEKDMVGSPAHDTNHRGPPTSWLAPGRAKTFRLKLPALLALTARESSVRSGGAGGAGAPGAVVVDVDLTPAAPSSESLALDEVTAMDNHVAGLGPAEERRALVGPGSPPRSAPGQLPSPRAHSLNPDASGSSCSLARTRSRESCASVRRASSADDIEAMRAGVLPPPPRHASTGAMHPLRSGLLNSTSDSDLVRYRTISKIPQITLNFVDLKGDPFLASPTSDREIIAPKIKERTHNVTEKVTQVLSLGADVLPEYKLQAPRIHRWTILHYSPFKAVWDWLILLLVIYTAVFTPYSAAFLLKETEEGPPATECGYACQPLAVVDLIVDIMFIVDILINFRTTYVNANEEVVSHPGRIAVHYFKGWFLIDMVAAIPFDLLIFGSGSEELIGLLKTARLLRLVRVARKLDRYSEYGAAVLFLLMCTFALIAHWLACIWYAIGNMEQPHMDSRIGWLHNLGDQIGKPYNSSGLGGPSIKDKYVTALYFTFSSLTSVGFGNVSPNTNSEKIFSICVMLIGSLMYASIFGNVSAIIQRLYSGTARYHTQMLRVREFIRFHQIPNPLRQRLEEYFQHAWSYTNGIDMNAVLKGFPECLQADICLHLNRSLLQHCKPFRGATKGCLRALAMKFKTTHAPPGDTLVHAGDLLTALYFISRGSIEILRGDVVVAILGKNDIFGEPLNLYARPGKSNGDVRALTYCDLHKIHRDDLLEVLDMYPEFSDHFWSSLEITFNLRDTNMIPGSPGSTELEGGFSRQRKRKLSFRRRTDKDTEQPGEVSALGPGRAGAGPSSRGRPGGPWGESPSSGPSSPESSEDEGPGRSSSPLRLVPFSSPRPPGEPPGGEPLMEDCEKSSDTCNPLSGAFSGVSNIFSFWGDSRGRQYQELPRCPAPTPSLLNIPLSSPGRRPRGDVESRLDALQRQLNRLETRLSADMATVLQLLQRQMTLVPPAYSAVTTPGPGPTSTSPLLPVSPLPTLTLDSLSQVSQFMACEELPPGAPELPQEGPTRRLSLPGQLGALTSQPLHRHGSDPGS
# Assay notes: Inhibition of human ERG expressed in CHO cells at 40 uM at -80 mV holding potential by automated patch clamp method relative to control
# Format: toxicity, cell-based
# Conditions: CHO cells that express hERG
Attribute measured: inhibition at 40 µM (%)
The figure you give is taken to be in %; do not add the unit.

Q: Reported inhibition at 40 µM for Cc1c(C(C#N)c2c(F)cccc2F)nc(SC(C)C)[nH]c1=O (stereo unspecified) : what is it?
Result: 29.4

----------
# Study system: Human immunodeficiency virus type 1 reverse transcriptase (Human immunodeficiency virus 1, UniProt Q72547)
# Assay notes: Inhibition of recombinant wild-type p66/p51 HIV-1 reverse transcriptase incubated for 40 mins by picogreen dye-based spectrofluorometric analysis
Classify on IC50 using class 1 = under 0.7 µM, class 2 = from 0.7 µM up to 10 µM, class 3 = 10 µM and over

Q: Lab note: which band did Cc1c(C(C#N)c2ccc(Cl)nc2)nc(SC(C)C)[nH]c1=O (stereo not given) land in?
Result: class 3

Q: Follow-up item: Cc1c(C(C#N)c2cccc3c2OCO3)nc(SC(C)C)[nH]c1=O (stereo not given)
Result: class 2

Q: Follow-up item: Cc1c(C(C#N)c2c(F)cccc2Cl)nc(SC(C)C)[nH]c1=O (stereo not given)
Result: class 1

Q: Follow-up item: Cc1c(C(C#N)c2ccc(C(F)(F)F)cc2)nc(SC(C)C)[nH]c1=O (stereo not given)
Result: class 3

Q: Follow-up item: Cc1c(C(C#N)c2cccnc2)nc(SC(C)C)[nH]c1=O (stereo not given)
Result: class 3

Q: Follow-up item: COc1cccc(C(C#N)c2nc(SC(C)C)[nH]c(=O)c2C)c1 (stereo not given)
Result: class 2

Q: Follow-up item: Cc1c(C(C#N)c2cccnc2Cl)nc(SC(C)C)[nH]c1=O (stereo not given)
Result: class 3

Q: Follow-up item: Cc1c(C(C#N)c2cccc(Br)c2)nc(SC(C)C)[nH]c1=O (stereo not given)
Result: class 1

Q: Follow-up item: COc1cc(F)cc(C(C#N)c2nc(SC(C)C)[nH]c(=O)c2C)c1 (stereo not given)
Result: class 1

----------
# Assay notes: AUC (0 to t) in Sprague-Dawley rat at 1 mg/kg,iv measured upto 24 hrs by LC-MS/MS analysis
# Assay type: ADME, organism-based
# Set-up: dose 1 mg/kg, time < 24 hrs, route iv
# Conditions: in vivo
Attribute measured: AUC(0-t) at 24 h
For clarity, give the value followed by its unit.

Q: Reported AUC(0-t) at 24 h for Cc1c(C(C#N)c2c(F)cccc2F)nc(SC(C)C)[nH]c1=O (stereo unspecified) : what is it?
Result: 8280 ng·h/mL
